Measured GI50 of individual entries
System: UACC-257
Test: NCI tumour cell line growth inhibition, 48 h
Activity calls are given as the source filed them. Cut-off read from the data, not from the text of the source: active = GI50 up to about 1.1 µM and inactive = higher.

Example entries begin here.
Compound	GI50
CSc1c(C(=O)Nc2ccc(C)cc2)c(N)n(N)c(=O)c1C#N	> 100 µM (inactive)
O=C(CCc1cc(O)cc(O)c1)NCCCNC(=O)CCc1cc(O)cc(O)c1	> 100 µM (inactive)
COc1cc(C2C(Cl)C(=O)N2NC(=O)c2ccc(N)cc2)cc(Br)c1O (centres undefined)	19 µM (inactive)

Using known records, supply GI50 for Cc1cn(C2CC(O)C(CO)O2)c(=O)n2nnnc12 (centres undefined) > 100 µM (inactive)

* * *

System: TK-10
Assay: NCI tumour cell line growth inhibition, 48 h
Active and inactive are the calls of the source. No stated cut-off is given here; in the data, active = GI50 up to about 1.1 µM and inactive = higher.
Endpoint Label: GI50

Please review the following examples before continuing.
Test Smiles	GI50
O=C(c1ccccc1)c1ccc2n[se]nc2c1	> 100 µM (inactive)
CC(C)(C)c1cc(CCC(=O)Nc2ccc(Cl)cc2)nc(NC#N)n1	> 100 µM (inactive)

From here, focus on the item given below.
Name the recorded GI50 of the molecule listed here: `CCOC(=O)c1nc2ccccc2nc1Oc1cc(OC)cc(OC)c1` > 100 µM (inactive)

* * *

System: BT-549
Assay: NCI tumour cell line growth inhibition, 48 h
Calls of active or inactive are those of the source. No stated cut-off is given here; in the data, active = GI50 up to about 1.1 µM and inactive = higher.
Endpoint Label: GI50

Worked cases, answers included:
Compound	Measured
CC(=O)N1CCc2c([nH]c3ccc(Br)cc23)C1c1ccccc1 (centres undefined)	7.03 µM (inactive)
CCOC(=O)c1nc2ccccc2nc1Oc1cc(OC)cc(OC)c1	> 100 µM (inactive)
CCCCCCc1cc2cc(-c3cn4ccccc4n3)c(=O)oc2cc1O	10.1 µM (inactive)
c1ccc(C2(c3cc4ccccc4[nH]3)OCCO2)cc1	75.7 µM (inactive)

Supply GI50 measured with BT-549 for `N=c1c2c(-c3ccccc3)c[nH]c2ncn1N` . > 100 µM (inactive)

Return reported GI50 for target or system BT-549, item `c1ccc2c(c1)ccn1ccc3c4ccccc4nc-3c21` . 1.43 µM (inactive)

* * *

System: MDA-MB-435
Experiment: NCI tumour cell line growth inhibition, 48 h
The source made the active and inactive calls. No stated cut-off is given here; in the data, active = GI50 up to about 1.1 µM and inactive = higher.
Select the correct class. Options are active, inactive and nothing else.

Examples from the recorded data:
Molecule	System Tested	Assigned Category
COc1ccc(-n2cnc3c(N)nc(N)nc32)cc1	MDA-MB-435	inactive
CN(C)c1ccc(/N=N/c2ccc3[nH]cnc3c2)cc1	MDA-MB-435	inactive
N=C(CSS(=O)(=O)O)NC1CC2CCC1C2 (stereo not given)	MDA-MB-435	inactive
NNc1ncc2c(n1)-c1ccccc1OC2	MDA-MB-435	inactive
CCOC(=O)CSc1nc(N)c2c(-c3ccc(OC)c(OC)c3)c3c(nc2n1)CCCC3	MDA-MB-435	inactive
Cc1nn(C(=O)Cc2ccccc2)c2c1C(c1ccccc1[N+](=O)[O-])SC(=N)N2 (stereo not given)	MDA-MB-435	inactive

Hey, what did the test say about `C(/Cc1ccc2c(c1)OCO2)=N\N=C1NCCN1` ? inactive

Hi, sorry to bother you, what did the test record for CCCC(=O)OC1C(C(O)CO)OC2OC(C)(C)OC21 (stereo not given) ? inactive

I'd appreciate the recorded outcome for CC1(C)C2CCC1(C)C(OC(=O)/C=C/C(=O)OC1CC3CCC1(C)C3(C)C)C2 (stereo not given) from this test. inactive

From: ChEMBL document CHEMBL1201862
